# ASSAYED TARGET: Human immunodeficiency virus type 1 reverse transcriptase (Human immunodeficiency virus 1)
# PROTOCOL DETAILS: HIV-1 reverse transcriptase inhibitory activity against Cys181 mutant using (poly)rC600*(oligo)dGT as template primer.
RESULT TYPE: log10(IC50) (log10 of the value in nM)
Units before log transform: nM; reported quantity: IC50; transform: log10.

QUERY: Supply log10(IC50) value. Item: CCOc1ccc(F)c(CCNC(=O)Nc2ccc(Br)cn2)c1Cl
RESULT: 2.38

QUERY: Supply log10(IC50) value. Item: CCOc1ccc(F)c(C2CC2NC(=O)Nc2cc(Cl)cnn2)c1Cl (stereo not given)
RESULT: 2.41

QUERY: Supply log10(IC50) value. Item: CC(=O)c1ccc(F)c(C2CC2NC(=O)Nc2ccc(Br)cn2)c1O (stereo not given)
RESULT: 0.90

QUERY: Supply log10(IC50) value. Item: O=C(Nc1ccc(Cl)cn1)NC1CC1c1c(F)ccc(O)c1Cl (stereo not given)
RESULT: 3.63

QUERY: Supply log10(IC50) value. Item: CCOc1ccc(F)c(C2CC2NC(=O)Nc2ccc(C#N)cn2)c1Cl (stereo not given)
RESULT: 2.11

QUERY: Supply log10(IC50) value. Item: CCC(=O)c1ccc(F)c(C2CC2NC(=O)Nc2ccc(Cl)cn2)c1O (stereo in doubt; 20)
RESULT: 0.60

QUERY: Supply log10(IC50) value. Item: CCOc1ccc(Cl)c(C2CC2NC(=O)Nc2cc(Cl)cnn2)c1F (stereo not given)
RESULT: 3.00

QUERY: Supply log10(IC50) value. Item: COc1c(C(C)=O)ccc(F)c1CCNC(=O)Nc1ccc(Cl)cn1
RESULT: 4.10

QUERY: Supply log10(IC50) value. Item: CCOc1ccc(Cl)c(C2CC2NC(=O)Nc2ccc(C#N)cn2)c1F (stereo not given)
RESULT: 1.30

QUERY: Supply log10(IC50) value. Item: CCC(=O)c1ccc(F)c(C2CC2NC(=O)Nc2ccc(Br)cn2)c1O (stereo in doubt; 18)
RESULT: 1.00

The reported numbers originate from ChEMBL document CHEMBL1132432.
